Test system: SN12C
Test: NCI tumour cell line growth inhibition, 48 h
Calls of active or inactive are those of the source. No stated cut-off is given here; in the data, active = GI50 up to about 1.1 µM and inactive = higher.
Outcome codes: yes (active), no (inactive)

[[record]]
molecule = "O=C1/C(=C/c2ccccc2)CCC/C1=C\\c1ccccc1"
label_class = "no"

[[record]]
molecule = "FC1CCN(C2(c3cccs3)CCCCC2)CC1"
label_class = "no"

[[record]]
molecule = "CC(C)N(C(=O)C12C3C4C5C3C1(C#N)C5C42)C(C)C (stereo unspecified)"
label_class = "no"

[[record]]
molecule = "Cc1ccc2c(O)cc(-c3ccccc3)nc2n1"
label_class = "yes"

[[record]]
molecule = "CC(=O)c1nccc2c1c(C)nc1ccccc12"
label_class = "no"

[[record]]
molecule = "O=C(NC1C(=O)NNC1c1cccc([N+](=O)[O-])c1)c1ccccc1 (stereo unspecified)"
label_class = "no"

